Values compiled from patent US20240209076A1.

# pKd listing for each entry below
TARGET OF ASSAY: T1, recombinant human IL-6 (human, UniProt P05231 30-212)
T1 construct: Flowed in solution over the captured antibodies
T1 sequence (P05231 30-212 limits assumed): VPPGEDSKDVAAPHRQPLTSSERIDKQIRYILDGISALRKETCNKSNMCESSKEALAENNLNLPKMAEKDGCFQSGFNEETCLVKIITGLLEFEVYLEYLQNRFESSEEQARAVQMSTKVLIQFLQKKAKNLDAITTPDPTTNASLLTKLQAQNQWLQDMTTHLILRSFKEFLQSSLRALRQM
ASSAY REMARKS: SPR (Biacore), supernatant IgG on Protein A, 25 C
Protocol: Antibodies were captured on a Protein A chip (GE) by injecting 1:20 dilution of cell supernatant at 10 μL/min for 60 seconds. […] The sensor chip was regenerated by a 60 seconds injection of 10 mM Glycine pH 1.7 at flow rate of 50 μL/min. […] For this setup, 1 μg/mL of purified antibody was injected over a Protein A chip at 10 μL/min for 25-28 seconds. Data analysis for supernatant and purified samples were performed using BIAevaluation software (GE). […]
pKd: −log10 of the molar value.
READOUT LABEL: pKd

# BINDER, READOUT LABEL, MEAS VALUE
rows = [
    ("anti-IL-6 antibody, heavy chain V64A, light chain WT (antibody, IgG1, V domains shown, Full IgG1 tested; V domains derived as in m2) VH: EVQLVESGGGLVQPGGSLRLSCAASGFTFSPFAMSWVRQAPGKGLEWVAKISPGGSWTYYSDTATGRFTFSLDTSKSTAYLQMNSLRAEDTAVYYCARQLWGYYALDIWGQGTLVTVSS VL: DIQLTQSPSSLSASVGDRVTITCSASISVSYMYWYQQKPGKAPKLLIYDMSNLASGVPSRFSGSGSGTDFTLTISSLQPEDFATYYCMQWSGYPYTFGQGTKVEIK", "pKd", 9.40),
    ("anti-IL-6 antibody, heavy chain T63K, light chain WT (antibody, IgG1, V domains shown, Full IgG1 tested; V domains derived as in m2) VH: EVQLVESGGGLVQPGGSLRLSCAASGFTFSPFAMSWVRQAPGKGLEWVAKISPGGSWTYYSDKVTGRFTFSLDTSKSTAYLQMNSLRAEDTAVYYCARQLWGYYALDIWGQGTLVTVSS VL: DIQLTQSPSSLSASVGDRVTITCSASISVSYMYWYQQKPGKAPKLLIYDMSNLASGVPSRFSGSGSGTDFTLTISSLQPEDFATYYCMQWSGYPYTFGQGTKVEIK", "pKd", 9.41),
    ("anti-IL-6 antibody, heavy chain S56R, light chain WT (antibody, IgG1, V domains shown, Full IgG1 tested; V domains derived as in m2) VH: EVQLVESGGGLVQPGGSLRLSCAASGFTFSPFAMSWVRQAPGKGLEWVAKISPGGRWTYYSDTVTGRFTFSLDTSKSTAYLQMNSLRAEDTAVYYCARQLWGYYALDIWGQGTLVTVSS VL: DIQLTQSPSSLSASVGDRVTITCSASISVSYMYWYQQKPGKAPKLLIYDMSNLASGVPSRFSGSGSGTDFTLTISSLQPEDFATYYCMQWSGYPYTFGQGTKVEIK", "pKd", 9.25),
    ("anti-IL-6 antibody, heavy chain G66E, light chain WT (antibody, IgG1, V domains shown, Full IgG1 tested; V domains derived as in m2) VH: EVQLVESGGGLVQPGGSLRLSCAASGFTFSPFAMSWVRQAPGKGLEWVAKISPGGSWTYYSDTVTERFTFSLDTSKSTAYLQMNSLRAEDTAVYYCARQLWGYYALDIWGQGTLVTVSS VL: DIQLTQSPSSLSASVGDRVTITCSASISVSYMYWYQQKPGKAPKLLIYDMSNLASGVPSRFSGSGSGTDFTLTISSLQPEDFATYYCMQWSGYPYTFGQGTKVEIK", "pKd", 9.97),
    ("anti-IL-6 antibody, heavy chain S61A, light chain WT (antibody, IgG1, V domains shown, Full IgG1 tested; V domains derived as in m2) VH: EVQLVESGGGLVQPGGSLRLSCAASGFTFSPFAMSWVRQAPGKGLEWVAKISPGGSWTYYADTVTGRFTFSLDTSKSTAYLQMNSLRAEDTAVYYCARQLWGYYALDIWGQGTLVTVSS VL: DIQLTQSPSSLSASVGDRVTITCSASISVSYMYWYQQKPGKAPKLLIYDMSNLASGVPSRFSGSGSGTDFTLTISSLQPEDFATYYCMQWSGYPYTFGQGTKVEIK", "pKd", 9.40),
]
